Recorded pEC50 values for a group of molecules are listed next.
molecular target: Cannabinoid receptor 1 (Homo sapiens); test: Inverse agonist activity at human CB1 receptor transfected in HEK293 cells assessed as increase of forskolin-induced cAMP production incubated for 30 mins followed by d2 labeled cAMP addition measured after 60 mins by HTRF assay
Sequence (P21554 whole entry): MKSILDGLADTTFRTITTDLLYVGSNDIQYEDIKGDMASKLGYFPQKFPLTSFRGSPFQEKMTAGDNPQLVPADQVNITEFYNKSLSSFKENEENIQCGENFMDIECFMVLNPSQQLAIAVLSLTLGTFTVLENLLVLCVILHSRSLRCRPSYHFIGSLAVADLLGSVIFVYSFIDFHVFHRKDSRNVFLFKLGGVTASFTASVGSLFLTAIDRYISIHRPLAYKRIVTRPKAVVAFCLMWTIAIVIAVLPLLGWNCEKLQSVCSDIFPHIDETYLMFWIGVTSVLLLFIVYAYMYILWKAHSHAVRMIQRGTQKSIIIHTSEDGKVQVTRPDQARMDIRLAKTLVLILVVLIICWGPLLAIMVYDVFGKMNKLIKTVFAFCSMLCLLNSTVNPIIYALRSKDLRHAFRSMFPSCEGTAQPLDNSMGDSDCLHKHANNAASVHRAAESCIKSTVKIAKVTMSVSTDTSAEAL
# log scale: pEC50 equals minus log10 of the concentration in mol/L

Here is how some molecules turned out for pEC50.
• C[C@@H](NC(=O)c1nn(-c2ccc(Cl)cc2)c2c1CN(C(=O)c1nc[nH]n1)C/C2=C\c1ccc(Cl)cc1)c1ccccc1 = 7.77
• C[C@@H](NC(=O)c1nn(-c2ccc(Cl)cc2Cl)c2c1CN(C(=O)Cn1cnnn1)C/C2=C\c1ccc(F)cc1)c1ccccc1 = 8.10
• C[C@@H](NC(=O)c1nn(-c2ccc(Cl)cc2)c2c1CN(C(=O)CNS(C)(=O)=O)C/C2=C\c1ccc(F)cc1)c1ccccn1 = 7.52

Exercise: For the molecule "C[C@@H](NC(=O)c1nn(-c2ccc(Cl)c(Cl)c2)c2c1CN(C(=O)Cn1cnnn1)C/C2=C\c1ccc(F)cc1)c1ccccn1" , what pEC50 is on record?
Solution: 8.15

Exercise: Which pEC50 value is on record for "C[C@@H](NC(=O)c1nn(-c2ccc(Cl)cc2Cl)c2c1CN(C(=O)CNS(C)(=O)=O)C/C2=C\c1ccc(Cl)cc1)c1ccccn1" ?
Solution: 7.77

Exercise: // query pEC50 value for entry "COc1ccc(/C=C2\CN(C(=O)CS(N)(=O)=O)Cc3c(C(=O)N[C@H](C)c4ccccn4)nn(-c4ccc(Cl)cc4Cl)c32)cc1"
Solution: 8.10

Exercise: What measured pEC50 goes with "COc1ccc(/C=C2\CN(C(=O)c3cc[nH]n3)Cc3c(C(=O)N[C@H](C)c4ccccc4)nn(-c4ccc(Cl)cc4Cl)c32)cc1" ?
Solution: 7.49

----------
assay: Drug uptake in C57BL/6J mouse brain at 20 mg/kg, po measured at 4 hrs; assay type: ADME, organism-based; conditions: in vivo, 4 h
property name: Drug uptake
Kindly format the answer as number then unit.

Field: example entries. Status: answers known.
- C[C@@H](NC(=O)c1nn(-c2ccc(Cl)cc2Cl)c2c1CN(C(=O)[C@@H](O)CO)C/C2=C\c1ccc(Cl)cc1)c1ccccc1: 0.17 nmol/g
- C[C@@H](NC(=O)c1nn(-c2ccc(Cl)c(Cl)c2)c2c1CN(C(=O)Cn1cnnn1)C/C2=C\c1ccc(F)cc1)c1ccccn1: 0.15 nmol/g
- COc1ccc(/C=C2\CN(C(=O)CN)Cc3c(C(=O)N[C@H](C)c4ccccc4)nn(-c4ccc(Cl)cc4Cl)c32)cc1: 0.07 nmol/g
- C[C@@H](NC(=O)c1nn(-c2ccc(Cl)cc2Cl)c2c1CN(C(=O)[C@@H](O)CO)C/C2=C\c1ccc(Cl)cc1)c1ccccn1: 0.18 nmol/g
- C[C@@H](NC(=O)c1nn(-c2ccc(Cl)cc2Cl)c2c1CN(C(=O)Cn1cnnn1)C/C2=C\c1ccc(F)cc1)c1ccccn1: 0.07 nmol/g
- C[C@@H](NC(=O)c1nn(-c2ccc(Cl)cc2Cl)c2c1CN(C(=O)CNS(C)(=O)=O)C/C2=C\c1ccc(Cl)cc1)c1ccccn1: 0.17 nmol/g
- C[C@@H](NC(=O)c1nn(-c2ccc(Cl)c(Cl)c2)c2c1CN(C(=O)Cn1cncn1)C/C2=C\c1ccc(Cl)cc1)c1ccccn1: 0.35 nmol/g
- COc1ccc(/C=C2\CN(C(=O)CCS(N)(=O)=O)Cc3c(C(=O)N[C@H](C)c4ccccn4)nn(-c4ccc(Cl)cc4Cl)c32)cc1: 0.05 nmol/g
- C[C@@H](NC(=O)c1nn(-c2ccc(Cl)cc2)c2c1CN(C(=O)CNS(C)(=O)=O)C/C2=C\c1ccc(F)cc1)c1ccccn1: 0.09 nmol/g
- COc1ccc(/C=C2\CN(C(=O)CS(N)(=O)=O)Cc3c(C(=O)N[C@H](C)c4ccccn4)nn(-c4ccc(Cl)cc4Cl)c32)cc1: 0.08 nmol/g

Exercise: I'd like to know its Drug uptake. The molecule in question is "C[C@@H](NC(=O)c1nn(-c2ccc(Cl)cc2Cl)c2c1CN(C(=O)CCC(N)=O)C/C2=C\c1ccc(F)cc1)c1ccccn1"
Solution: 0.12 nmol/g

Exercise: Can you share its Drug uptake? I mean this molecule: "C[C@@H](NC(=O)c1nn(-c2ccc(Cl)cc2Cl)c2c1CN(C(=O)Cn1cnnn1)C/C2=C\c1ccc(F)cc1)c1ccccc1"
Solution: 0.43 nmol/g

----------
test: Drug uptake in C57BL/6J mouse brain at 20 mg/kg, po measured at 4 hrs; assay type: ADME, organism-based; conditions: C57BL/6J, brain, read-out: Drug uptake
property name: concentration at 4 h

Exercise: Any idea what its concentration at 4 h is? The compound is "COc1ccc(/C=C2\CN(C(=O)CC(=O)O)Cc3c(C(=O)N[C@H](C)c4ccccn4)nn(-c4ccc(Cl)cc4Cl)c32)cc1"
Solution: < 5 ng/mL

----------
Here, each record is paired with measured EC50 data.
target: UniProt:P21554; experiment: Inverse agonist activity at human CB1 receptor transfected in HEK293 cells assessed as increase of forskolin-induced cAMP production incubated for 30 mins followed by d2 labeled cAMP addition measured after 60 mins by HTRF assay; assay type: functional, cell-based
Response body: numeric value in nM, unit text excluded.

# count of solved cases: 5
• C[C@@H](NC(=O)c1nn(-c2ccc(Cl)cc2Cl)c2c1CN(C(=O)Cn1cnnn1)C/C2=C\c1ccc(F)cc1)c1ccccn1 = 6
• C[C@@H](NC(=O)c1nn(-c2ccc(Cl)cc2Cl)c2c1CN(C(=O)CC(N)=O)C/C2=C\c1ccc(F)cc1)c1ccccn1 = 9
• COc1ccc(/C=C2\CN(C(=O)Cn3ccnn3)Cc3c(C(=O)N[C@H](C)c4ccccc4)nn(-c4ccc(Cl)cc4Cl)c32)cc1 = 4
• COc1ccc(/C=C2\CN(C(=O)Cn3cnnn3)Cc3c(C(=O)N[C@H](C)c4ccccc4)nn(-c4ccc(Cl)cc4Cl)c32)cc1 = 6
• C[C@@H](NC(=O)c1nn(-c2ccc(Cl)cc2)c2c1CN(C(=O)c1nc[nH]n1)C/C2=C\c1ccc(F)cc1)c1ccccc1 = 12

Exercise: I am curious: what EC50 value has been reported for "COc1ccc(/C=C2\CN(C(=O)CN)Cc3c(C(=O)N[C@H](C)c4ccccc4)nn(-c4ccc(Cl)cc4Cl)c32)cc1" ?
Solution: 24

Exercise: I have this compound here, "COc1ccc(/C=C2\CN(C(=O)CCS(N)(=O)=O)Cc3c(C(=O)N[C@H](C)c4ccccn4)nn(-c4ccc(Cl)cc4Cl)c32)cc1" , and I need its recorded EC50.
Solution: 6

----------
assay: Plasma concentration in C57BL/6J mouse at 20 mg/kg, po measured at 2 hrs; format: ADME, organism-based
Is concentration at 2 h at least 2000 nM? Then t. If not, f.

# count of solved cases: 5
• COc1ccc(/C=C2\CN(C(=O)c3cc[nH]n3)Cc3c(C(=O)N[C@H](C)c4ccccc4)nn(-c4ccc(Cl)cc4Cl)c32)cc1 = f
• C[C@@H](NC(=O)c1nn(-c2ccc(Cl)cc2)c2c1CN(C(=O)c1nc[nH]n1)C/C2=C\c1ccc(Cl)cc1)c1ccccc1 = t
• C[C@@H](NC(=O)c1nn(-c2ccc(Cl)cc2Cl)c2c1CN(C(=O)c1nc[nH]n1)C/C2=C\c1ccc(F)cc1)c1ccccc1 = t
• COc1ccc(/C=C2\CN(C(=O)Cn3cnnn3)Cc3c(C(=O)N[C@H](C)c4ccccc4)nn(-c4ccc(Cl)cc4Cl)c32)cc1 = t
• COc1ccc(/C=C2\CN(C(=O)c3nc[nH]n3)Cc3c(C(=O)N[C@H](C)c4ccccc4)nn(-c4ccc(Cl)cc4Cl)c32)cc1 = f

Switching to the query record.
Exercise: Reported concentration at 2 h reaches at least 2000 nM for "C[C@@H](NC(=O)c1nn(-c2ccc(Cl)cc2)c2c1CN(C(=O)c1nc[nH]n1)C/C2=C\c1ccc(Cl)cc1)c1ccccn1" ?
Solution: t

----------
target: Cannabinoid receptor 1 (Homo sapiens); experiment: Inverse agonist activity at human CB1 receptor transfected in HEK293 cells assessed as increase of forskolin-induced cAMP production incubated for 30 mins followed by d2 labeled cAMP addition measured after 60 mins by HTRF assay
// reported EC50 for each item listed
A number alone suffices; assume nM.

* C[C@@H](NC(=O)c1nn(-c2ccc(Cl)cc2)c2c1CN(C(=O)c1nc[nH]n1)C/C2=C\c1ccc(Cl)cc1)c1ccccn1 | 28
* COc1ccc(/C=C2\CN(C(=O)Cn3ccnc3)Cc3c(C(=O)N[C@H](C)c4ccccc4)nn(-c4ccc(Cl)cc4Cl)c32)cc1 | 5
* C[C@@H](NC(=O)c1nn(-c2ccc(Cl)c(Cl)c2)c2c1CN(C(=O)Cn1cncn1)C/C2=C\c1ccc(Cl)cc1)c1ccccn1 | 6
* C[C@@H](NC(=O)c1nn(-c2ccc(Cl)cc2Cl)c2c1CN(C(=O)CCC(N)=O)C/C2=C\c1ccc(F)cc1)c1ccccn1 | 20
* COc1ccc(/C=C2\CN(C(=O)c3nc[nH]n3)Cc3c(C(=O)N[C@H](C)c4ccccc4)nn(-c4ccc(Cl)cc4Cl)c32)cc1 | 15
* COc1ccc(/C=C2\CN(C(=O)CC(=O)O)Cc3c(C(=O)N[C@H](C)c4ccccn4)nn(-c4ccc(Cl)cc4Cl)c32)cc1 | 11

Exercise: EC50 lookup needed for "C[C@@H](NC(=O)c1nn(-c2ccc(Cl)cc2Cl)c2c1CN(C(=O)c1nc[nH]n1)C/C2=C\c1ccc(F)cc1)c1ccccc1" , thanks.
Solution: 15

Exercise: Please look up its EC50: "C[C@@H](NC(=O)c1nn(-c2ccc(Cl)cc2Cl)c2c1CN(C(=O)[C@@H](O)CO)C/C2=C\c1ccc(Cl)cc1)c1ccccc1"
Solution: 18

Exercise: Param item = "C[C@@H](NC(=O)c1nn(-c2ccc(Cl)cc2Cl)c2c1CN(C(=O)[C@@H](O)CO)C/C2=C\c1ccc(Cl)cc1)c1ccccn1" ; retrieve measured EC50.
Solution: 22
